Target: glucocerebrosidase (Gcase) (Homo sapiens)
Sequence (P04062 40-536): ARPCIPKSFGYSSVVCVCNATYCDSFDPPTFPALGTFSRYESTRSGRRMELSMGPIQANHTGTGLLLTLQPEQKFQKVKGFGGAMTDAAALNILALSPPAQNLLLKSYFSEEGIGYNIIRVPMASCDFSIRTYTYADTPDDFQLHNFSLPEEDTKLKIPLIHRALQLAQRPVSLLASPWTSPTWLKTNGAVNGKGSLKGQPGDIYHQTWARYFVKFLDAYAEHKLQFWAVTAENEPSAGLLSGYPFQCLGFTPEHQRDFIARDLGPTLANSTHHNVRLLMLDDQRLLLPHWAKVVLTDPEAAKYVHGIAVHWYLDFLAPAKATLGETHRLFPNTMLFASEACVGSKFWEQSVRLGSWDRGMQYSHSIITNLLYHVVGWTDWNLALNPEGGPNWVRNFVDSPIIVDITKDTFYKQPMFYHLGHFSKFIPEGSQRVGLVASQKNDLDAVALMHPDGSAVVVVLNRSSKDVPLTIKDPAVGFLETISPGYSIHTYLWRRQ
Assay: Glucocerebrosidase (Gcase) activation assay, 4-methylumbelliferyl-beta-D-glucopyranoside substrate, with saposin C
Format: biochemical
Conditions: 0.1 μM test compound; read-out: Percent Gcase Activation 0.1 μM Test Compound
Experimental: The ability of exemplary compounds to activate glucocerebrosidase (Gcase) was measured. A 484 μL aliquot of a 1.0 mg/mL solution of phosphatidylserine (PS) (Sigma P7769) in chloroform was evaporated under a stream of nitrogen for 1 hour. The lipid film was dissolved over 4 minutes of vigorous vortexing in 40 mL of 176 mM K2HPO4/50 mM citric acid (pH 4.7) containing 7.5 μL of triton X-100, resulting in a mixed micellar preparation with a composition of 0.32 mM triton and 0.37 mol % PS. […]
activation at 0.1 µM by entry:

Here is how some molecules turned out for activation at 0.1 µM.
Req: # query: activation at 0.1 µM of entry Cc1cc(N2CCC(F)(F)C2)nc2c(C(=O)NC(C3CC3)C(F)(F)F)ncn12 (centres unmarked) [III-139]
Resp: > 20%

Req: # query: activation at 0.1 µM of entry Cc1cc(-c2ccns2)nc2c(C(=O)NC(C3CC3)C(F)(F)F)ncn12 (centres unmarked) [III-141]
Resp: > 20%

Req: # query: activation at 0.1 µM of entry C#CC(C)(C)NC(=O)c1ncn2c(C)cc(-c3cccc(OC)n3)nc12 [III-148]
Resp: < 10%

Req: # query: activation at 0.1 µM of entry Cc1cc(Oc2ccc(F)cc2)nc2c(C(=O)NC(C)(C)C3CC3)ncn12 [III-77]
Resp: < 10%

Moving on to another molecule below.
Req: # query: activation at 0.1 µM of entry Cc1cc(-c2cccc(OC3CC3)c2)nc2c(C(=O)NC(C)C(F)(F)F)ncn12 (centres unmarked) [III-169]
Resp: > 20%

###

Molecular target: UniProtKB P04062
Experiment: Glucocerebrosidase (Gcase) activation assay, 4-methylumbelliferyl-beta-D-glucopyranoside substrate, with saposin C
Assay type: biochemical
Conditions: 0.1 μM test compound; read-out: Percent Gcase Activation 0.1 μM Test Compound
activation at 0.1 µM by entry:

Here is how some compounds turned out for activation at 0.1 µM.
Req: # query: activation at 0.1 µM of entry `CCOc1cccc(-c2cc(C)n3cnc(C(=O)NC(C)(C)C4CC4)c3n2)n1`
Resp: < 10%

Req: # query: activation at 0.1 µM of entry `Cc1cc(-c2ccc(F)c(Cl)n2)nc2c(C(=O)N[C@@H](C)C3CC3)ncn12`
Resp: < 10%

Req: # query: activation at 0.1 µM of entry `CCc1cc(-c2cccc(OC)c2)nc2c(C(=O)N[C@@H](C)C3CC3)ncn12`
Resp: > 20%

Req: # query: activation at 0.1 µM of entry `Cc1cc(-c2cccnc2)nc2c(C(=O)NC(C)(C)C3CC3)ncn12`
Resp: < 10%

Req: # query: activation at 0.1 µM of entry `Cc1cc(N2CCCC(F)(F)C2)nc2c(C(=O)N[C@@H](C)C3CC3)ncn12`
Resp: 10 to 20%

Req: # query: activation at 0.1 µM of entry Cc1cc(-c2ccccc2C#N)nc2c(C(=O)NC(C3CC3)C(F)(F)F)ncn12 (stereo not drawn)
Resp: > 20%

Req: # query: activation at 0.1 µM of entry `Cc1cc(Oc2ccccc2F)nc2c(C(=O)N[C@@H](C)C3CC3)ncn12`
Resp: < 10%

Req: # query: activation at 0.1 µM of entry `Cc1cc(-c2ccccn2)nc2c(C(=O)NC(C)(C)C3CC3)ncn12`
Resp: < 10%

---
Req: # query: activation at 0.1 µM of entry `Cc1cn2cnc(C(=O)N[C@@H](C)C3CC3)c2nc1-c1ccc(F)cc1`
Resp: < 10%

Req: # query: activation at 0.1 µM of entry `Cc1cc(-c2ccc(F)cc2)nc2c(C(=O)N[C@@H](C)C3CC3)ncn12`
Resp: 10 to 20%

Req: # query: activation at 0.1 µM of entry `Cc1cc(C)n2cnc(C(=O)N[C@@H](C)C3CC3)c2n1`
Resp: < 10%

Req: # query: activation at 0.1 µM of entry `C#Cc1ccc(NC(=O)c2ncn3c(C4CCCC4)cc(C)nc23)cc1`
Resp: 10 to 20%

Req: # query: activation at 0.1 µM of entry `Cc1cc(N2CCCC(F)(F)C2)nc2c(C(=O)NC(C)(C)C3CC3)ncn12`
Resp: 10 to 20%

Req: # query: activation at 0.1 µM of entry Cc1cc(N2CCCC(F)(F)C2)nc2c(C(=O)NC(C3CC3)C(F)(F)F)ncn12 (stereo not drawn)
Resp: > 20%

Req: # query: activation at 0.1 µM of entry `Cc1cc(-n2cncn2)nc2c(C(=O)NC(C)(C)C3CC3)ncn12`
Resp: < 10%

Req: # query: activation at 0.1 µM of entry `Cc1cc(-c2ccc3ncoc3c2)nc2c(C(=O)N[C@@H](C)C3CC3)ncn12`
Resp: < 10%
